testName: JHH-DIPG-1 glioma cell viability, MIPE5.0 library, CellTiter-Glo luminescence, qHTS (AID 1347067);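 further: cells exposed to compound for 48 hours before readout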
conditionSummary: JHH-DIPG-1 glioma viability, CellTiter-Glo ATP luminescence
Results filed as inconclusive are left out. Activity calls are given as the source filed them. Cut-off not given; nearly all actives show AC50 up to about 26 µM.
# valid calls are 1 (yes) (active), 0 (no) (inactive); nothing else

Observe how each entry below is paired with its result.
1) O=C(O)[C@H](O)[C@@H](O)[C@H](O[C@@H]1O[C@H](CO)[C@H](O)[C@H](O)[C@H]1O)[C@H](O)CO : 0 (no)
2) COCCCN1CCC(NC(=O)c2cc(Cl)c(N)c3c2OCC3)CC1 : 0 (no)

Read the next record carefully.
**Q:** // return assay outcome for C[C@@]12C(=O)OC(=O)[C@]1(C)[C@H]1CC[C@@H]2O1
**A:** 1 (yes)

Sourced from PubChem BioAssay
